Each entry below carries its measured IC50, system: Epidermal growth factor receptor (Homo sapiens, UniProt P00533, L858R).
Sequence (P00533 25-1210 L858R limits assumed): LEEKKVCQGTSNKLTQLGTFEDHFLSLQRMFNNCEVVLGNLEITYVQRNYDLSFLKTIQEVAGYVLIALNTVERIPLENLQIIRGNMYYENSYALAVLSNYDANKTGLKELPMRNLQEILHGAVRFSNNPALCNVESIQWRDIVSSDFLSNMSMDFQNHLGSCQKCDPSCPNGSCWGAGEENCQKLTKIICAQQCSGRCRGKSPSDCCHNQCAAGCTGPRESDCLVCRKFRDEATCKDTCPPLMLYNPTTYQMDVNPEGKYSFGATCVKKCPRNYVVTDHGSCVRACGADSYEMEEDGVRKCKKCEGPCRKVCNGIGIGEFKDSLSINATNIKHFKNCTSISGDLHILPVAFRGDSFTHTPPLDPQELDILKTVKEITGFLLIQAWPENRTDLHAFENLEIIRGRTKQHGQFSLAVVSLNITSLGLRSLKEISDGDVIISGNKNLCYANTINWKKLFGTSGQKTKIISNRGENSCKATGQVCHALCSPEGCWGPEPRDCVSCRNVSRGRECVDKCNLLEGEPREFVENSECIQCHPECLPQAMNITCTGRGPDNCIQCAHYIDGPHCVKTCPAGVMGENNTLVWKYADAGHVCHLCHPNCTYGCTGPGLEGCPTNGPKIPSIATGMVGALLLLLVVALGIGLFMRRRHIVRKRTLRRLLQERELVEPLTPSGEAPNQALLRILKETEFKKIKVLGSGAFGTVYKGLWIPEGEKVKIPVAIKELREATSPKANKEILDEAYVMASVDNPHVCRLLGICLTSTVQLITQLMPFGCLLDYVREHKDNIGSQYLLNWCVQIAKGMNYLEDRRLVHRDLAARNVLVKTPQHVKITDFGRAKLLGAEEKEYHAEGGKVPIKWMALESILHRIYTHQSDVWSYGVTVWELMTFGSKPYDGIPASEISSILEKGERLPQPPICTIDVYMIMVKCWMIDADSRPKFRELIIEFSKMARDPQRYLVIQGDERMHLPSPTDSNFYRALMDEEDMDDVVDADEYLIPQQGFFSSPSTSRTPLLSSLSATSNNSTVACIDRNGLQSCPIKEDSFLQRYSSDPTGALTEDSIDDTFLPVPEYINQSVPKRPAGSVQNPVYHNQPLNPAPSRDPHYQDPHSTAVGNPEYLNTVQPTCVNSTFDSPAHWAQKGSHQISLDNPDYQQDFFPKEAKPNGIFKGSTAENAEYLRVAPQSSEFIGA

Examples with answers:
| chemical_string | experimental_result |
| --- | --- |
| C=CC(=O)N1CCC[C@@H](n2nc(C#CCC3CCCC3)c3c(N)ncnc32)C1 | 120 nM |
| C=CC(=O)N1CCC[C@@H](n2nc(-c3ccc(N(C)C)c4ccccc34)c3c(N)ncnc32)C1 | 270 nM |
| C#Cc1nn([C@@H]2CCCN(C(=O)C=C)C2)c2ncnc(N)c12 | 960 nM |

**Query** Notebook: pull reported IC50 for Epidermal growth factor receptor (Homo sapiens, UniProt P00533, L858R), entry CCC(=O)N1CCC[C@@H](n2nc(-c3cccc(F)c3)c3c(N)ncnc32)C1
**Result** 3400 nM

**Query** Request - read-out IC50 | tested on Epidermal growth factor receptor (Homo sapiens, UniProt P00533, L858R) | compound C=CC(=O)N1CCC[C@@H](n2nc(-c3cn(C)c4ccccc34)c3c(N)ncnc32)C1
**Result** 2 nM
